biological target: Menin (Homo sapiens, UniProt O00255)
property_label: Kd (nM)
Field: numeric (nM). Do not append units.

Exam item: # return Kd for `Cc1c(CN2CCC(Nc3ncnc4sc(CC(F)(F)F)cc34)CC2)ccc2c1cc(C#N)n2Cc1cn[nH]c1` , test system: Menin (Homo sapiens, UniProt O00255)
Marked response: 9.3

====

target: Menin (Homo sapiens, UniProt O00255)
property_label: IC50 (nM)
Write the number in nM without appending the unit.

Exam item: Please indicate IC50 recorded for O=c1cccc2n1[C@@H]1C[C@H](C2)CN(CC(O)CCCc2ccccc2)C1 (stereo partly specified)
Marked response: 1

====

Molecular target: Menin (Homo sapiens, UniProt O00255)
Sequence (O00255 whole entry): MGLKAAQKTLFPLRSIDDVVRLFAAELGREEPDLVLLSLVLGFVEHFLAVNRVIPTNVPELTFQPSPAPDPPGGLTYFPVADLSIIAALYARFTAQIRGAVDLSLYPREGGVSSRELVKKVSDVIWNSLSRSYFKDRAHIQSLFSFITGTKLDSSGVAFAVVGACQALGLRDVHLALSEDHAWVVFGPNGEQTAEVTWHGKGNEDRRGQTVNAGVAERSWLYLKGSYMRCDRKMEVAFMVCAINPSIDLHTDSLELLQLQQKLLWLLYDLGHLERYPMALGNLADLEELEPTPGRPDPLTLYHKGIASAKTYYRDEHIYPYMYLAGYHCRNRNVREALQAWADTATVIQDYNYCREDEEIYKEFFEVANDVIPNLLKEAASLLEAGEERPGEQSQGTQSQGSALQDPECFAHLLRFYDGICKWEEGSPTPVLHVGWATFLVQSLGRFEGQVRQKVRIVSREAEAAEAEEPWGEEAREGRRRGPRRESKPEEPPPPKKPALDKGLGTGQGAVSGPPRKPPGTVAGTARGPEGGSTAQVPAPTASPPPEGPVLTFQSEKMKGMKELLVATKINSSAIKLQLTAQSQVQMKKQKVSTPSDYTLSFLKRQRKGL
Assay: Displacement of FITC-MBM1 from full length human menin measured after 2 hrs by fluorescence polarization assay
property_label: IC50 (µM)
Report only the number, with the unit µM understood.

NCC(CCN1CC=C(c2ccc(Cl)cc2)CC1)(c1ccccc1)C1CCCC1 (configuration not stated) :: 0.83

Exam item: Look up and report IC50, with Menin (Homo sapiens, UniProt O00255) as system, for CN(C)C(=O)C(CCN1CCC(O)(c2ccc(Cl)cc2)CC1)(c1ccccc1)c1ccccc1 [LOPERAMIDE]
Marked response: 69

====

target: Histone-lysine N-methyltransferase 2A (Homo sapiens); assay: Inhibition of MLL1 binding to N-terminal His-tagged […] 23 deletion mutant (24 to 334 residues) (unknown origin) expressed in Escherichia coli Rosetta 2 (DE3) pLysS cells by fluorescence polarization assay
Sequence (Q03164 1-2718 limits assumed, stated change not applied): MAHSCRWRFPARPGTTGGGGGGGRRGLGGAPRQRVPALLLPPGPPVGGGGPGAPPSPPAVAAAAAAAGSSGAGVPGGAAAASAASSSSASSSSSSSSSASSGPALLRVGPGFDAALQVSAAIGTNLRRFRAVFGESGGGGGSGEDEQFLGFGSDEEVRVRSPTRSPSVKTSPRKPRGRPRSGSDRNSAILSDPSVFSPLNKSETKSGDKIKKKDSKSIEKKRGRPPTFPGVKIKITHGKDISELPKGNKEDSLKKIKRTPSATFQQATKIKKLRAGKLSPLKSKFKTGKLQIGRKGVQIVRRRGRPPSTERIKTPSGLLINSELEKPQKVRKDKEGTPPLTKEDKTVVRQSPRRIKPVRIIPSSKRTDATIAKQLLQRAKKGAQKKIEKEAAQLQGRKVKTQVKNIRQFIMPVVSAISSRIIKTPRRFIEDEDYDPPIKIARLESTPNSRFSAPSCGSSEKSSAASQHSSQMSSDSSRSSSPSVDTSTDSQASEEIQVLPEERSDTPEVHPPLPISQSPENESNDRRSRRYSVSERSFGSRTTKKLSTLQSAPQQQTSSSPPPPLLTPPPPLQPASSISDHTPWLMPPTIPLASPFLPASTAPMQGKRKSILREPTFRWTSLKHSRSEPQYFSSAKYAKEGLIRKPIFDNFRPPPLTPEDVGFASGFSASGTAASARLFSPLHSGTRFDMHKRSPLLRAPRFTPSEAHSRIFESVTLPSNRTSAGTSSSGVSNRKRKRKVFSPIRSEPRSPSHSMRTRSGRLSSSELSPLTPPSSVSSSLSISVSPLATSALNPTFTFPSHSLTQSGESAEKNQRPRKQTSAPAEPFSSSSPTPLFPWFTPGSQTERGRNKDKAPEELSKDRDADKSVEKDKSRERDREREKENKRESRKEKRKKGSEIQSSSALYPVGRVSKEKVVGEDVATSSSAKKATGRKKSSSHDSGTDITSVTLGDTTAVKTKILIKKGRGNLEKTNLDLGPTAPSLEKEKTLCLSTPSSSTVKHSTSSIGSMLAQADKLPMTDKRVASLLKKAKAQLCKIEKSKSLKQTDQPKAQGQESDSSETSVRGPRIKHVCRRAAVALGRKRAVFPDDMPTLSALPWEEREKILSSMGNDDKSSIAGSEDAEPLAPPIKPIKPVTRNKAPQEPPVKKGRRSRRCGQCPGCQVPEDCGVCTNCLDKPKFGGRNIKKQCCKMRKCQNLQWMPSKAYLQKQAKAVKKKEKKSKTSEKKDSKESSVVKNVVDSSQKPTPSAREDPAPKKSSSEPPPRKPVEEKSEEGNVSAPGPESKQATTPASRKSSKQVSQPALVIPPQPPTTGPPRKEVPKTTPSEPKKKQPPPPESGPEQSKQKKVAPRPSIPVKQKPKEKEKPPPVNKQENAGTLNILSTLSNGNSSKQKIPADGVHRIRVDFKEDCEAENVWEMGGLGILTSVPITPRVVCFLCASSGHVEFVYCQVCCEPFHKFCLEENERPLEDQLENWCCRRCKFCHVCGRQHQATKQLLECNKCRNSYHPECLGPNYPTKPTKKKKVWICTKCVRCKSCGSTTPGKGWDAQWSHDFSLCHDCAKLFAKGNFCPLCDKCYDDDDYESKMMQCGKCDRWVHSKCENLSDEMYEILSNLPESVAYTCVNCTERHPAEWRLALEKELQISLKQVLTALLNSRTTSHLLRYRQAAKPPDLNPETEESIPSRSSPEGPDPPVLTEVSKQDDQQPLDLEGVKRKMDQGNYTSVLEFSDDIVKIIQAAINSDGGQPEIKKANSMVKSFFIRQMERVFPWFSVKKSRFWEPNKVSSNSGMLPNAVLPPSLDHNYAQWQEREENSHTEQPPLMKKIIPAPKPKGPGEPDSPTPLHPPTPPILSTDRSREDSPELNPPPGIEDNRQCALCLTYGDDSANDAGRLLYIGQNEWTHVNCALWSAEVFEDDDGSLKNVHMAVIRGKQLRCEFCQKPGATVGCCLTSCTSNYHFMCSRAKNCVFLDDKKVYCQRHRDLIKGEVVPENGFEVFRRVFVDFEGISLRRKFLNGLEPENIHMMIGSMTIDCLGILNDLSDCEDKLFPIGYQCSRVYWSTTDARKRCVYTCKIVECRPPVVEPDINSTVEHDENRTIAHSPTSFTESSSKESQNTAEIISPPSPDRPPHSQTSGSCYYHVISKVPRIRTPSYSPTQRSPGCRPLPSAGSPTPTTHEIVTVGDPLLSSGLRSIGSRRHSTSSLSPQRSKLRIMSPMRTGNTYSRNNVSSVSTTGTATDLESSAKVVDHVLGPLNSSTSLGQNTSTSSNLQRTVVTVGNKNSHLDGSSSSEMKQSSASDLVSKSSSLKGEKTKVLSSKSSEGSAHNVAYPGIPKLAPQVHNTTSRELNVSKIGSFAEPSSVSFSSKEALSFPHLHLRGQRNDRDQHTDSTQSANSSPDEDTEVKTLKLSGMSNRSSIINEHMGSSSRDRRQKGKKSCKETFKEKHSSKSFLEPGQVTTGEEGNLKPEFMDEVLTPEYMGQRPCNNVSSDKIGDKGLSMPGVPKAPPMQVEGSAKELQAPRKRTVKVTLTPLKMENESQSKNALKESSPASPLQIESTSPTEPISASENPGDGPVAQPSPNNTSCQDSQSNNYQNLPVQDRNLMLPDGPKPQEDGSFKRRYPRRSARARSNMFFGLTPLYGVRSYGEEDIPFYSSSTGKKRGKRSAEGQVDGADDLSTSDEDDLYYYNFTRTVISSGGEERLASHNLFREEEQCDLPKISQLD
Sequence (Q03164 2719-3969 limits assumed, stated change not applied): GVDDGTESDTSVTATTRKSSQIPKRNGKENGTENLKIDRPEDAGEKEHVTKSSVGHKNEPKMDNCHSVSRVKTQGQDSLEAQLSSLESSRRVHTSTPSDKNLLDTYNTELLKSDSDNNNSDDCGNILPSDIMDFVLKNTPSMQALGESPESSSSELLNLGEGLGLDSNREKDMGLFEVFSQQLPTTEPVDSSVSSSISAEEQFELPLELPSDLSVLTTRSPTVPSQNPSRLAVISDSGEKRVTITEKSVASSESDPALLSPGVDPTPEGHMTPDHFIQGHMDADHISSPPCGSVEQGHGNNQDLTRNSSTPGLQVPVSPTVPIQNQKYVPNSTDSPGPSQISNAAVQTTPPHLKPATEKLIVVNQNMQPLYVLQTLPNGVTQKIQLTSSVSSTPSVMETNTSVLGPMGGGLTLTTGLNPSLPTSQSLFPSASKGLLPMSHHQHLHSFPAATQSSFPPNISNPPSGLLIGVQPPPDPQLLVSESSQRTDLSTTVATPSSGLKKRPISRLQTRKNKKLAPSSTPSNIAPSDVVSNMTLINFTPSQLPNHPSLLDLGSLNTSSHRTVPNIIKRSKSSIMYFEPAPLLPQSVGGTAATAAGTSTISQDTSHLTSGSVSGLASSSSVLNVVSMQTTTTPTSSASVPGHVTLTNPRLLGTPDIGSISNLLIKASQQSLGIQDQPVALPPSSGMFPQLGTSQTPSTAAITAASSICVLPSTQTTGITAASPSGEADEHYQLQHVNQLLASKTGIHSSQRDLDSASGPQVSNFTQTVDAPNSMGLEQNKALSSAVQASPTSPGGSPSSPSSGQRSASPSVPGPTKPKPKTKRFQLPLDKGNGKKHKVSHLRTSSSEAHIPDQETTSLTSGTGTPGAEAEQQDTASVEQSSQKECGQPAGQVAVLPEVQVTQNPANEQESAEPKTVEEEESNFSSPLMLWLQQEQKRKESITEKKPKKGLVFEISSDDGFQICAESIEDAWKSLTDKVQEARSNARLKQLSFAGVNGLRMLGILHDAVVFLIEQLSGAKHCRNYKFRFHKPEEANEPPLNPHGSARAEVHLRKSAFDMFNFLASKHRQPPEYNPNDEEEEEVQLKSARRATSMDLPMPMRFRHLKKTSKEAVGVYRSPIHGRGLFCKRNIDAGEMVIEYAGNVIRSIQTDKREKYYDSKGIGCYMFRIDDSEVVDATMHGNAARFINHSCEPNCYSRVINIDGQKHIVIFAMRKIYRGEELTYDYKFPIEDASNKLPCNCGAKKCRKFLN
property_label: IC50 (nM)
Numbers only; they are read as nM.

Exam item: # assay system Histone-lysine N-methyltransferase 2A (Homo sapiens): give IC50 of `CCC(CC)(NC(=O)C(C)C)C(=O)N[C@@H](CCCNC(=N)N)C(=O)NC1(C(=O)NC(c2ccc(Cl)cc2)c2ccc(Cl)cc2)CCCC1`
Marked response: 4.5
